system: DU-4475; experiment: normalised viability (% of control), CellTiter-Blue; higher = more viable cells (about 100 = DMSO control); conditions: 10 nM; incubation time: 72 h
# normalised viability per entry
Unit % implied. Number only.

Solved entries:
{"compound": "COC(=O)C[C@](O)(CCCC(C)(C)O)C(=O)O[C@@H]1C(OC)=C[C@]23CCCN2CCc2cc4c(cc2[C@H]13)OCO4 [Omacetaxine mepesuccinate]", "normalised viability (%)": 25.1}
{"compound": "O=c1[nH]cc(F)c(=O)[nH]1 [Fluorouracil]", "normalised viability (%)": 97}
{"compound": "C[C@@]1(C(=O)Nc2ccc(F)nc2)CCCN1c1nc(Nc2cc(C3CC3)n[nH]2)c2cccn2n1", "normalised viability (%)": 90.4}
{"compound": "COC1=C2C[C@@H](C)C[C@H](OC)[C@H](O)[C@@H](C)/C=C(\\C)[C@H](OC(N)=O)[C@@H](OC)/C=C\\C=C(/C)C(=O)NC(=CC1=O)C2=O [Geldanamycin]", "normalised viability (%)": 119}
{"compound": "c1ccc(C2CN3CCSC3=N2)cc1 (stereo unspecified) [Tetramisole]", "normalised viability (%)": 87.6}

Attention now turns to another entry.
*Q* Specify normalised viability for COc1ccc(C2=N[C@@H](c3ccc(Cl)cc3)[C@@H](c3ccc(Cl)cc3)N2C(=O)N2CCNC(=O)C2)c(OC(C)C)c1 [Nutlin-3] , system DU-4475.
*A* 95.4
